Consider the following compounds and their measured IC50 readings.
Biological target: Protein kinase C delta type (Homo sapiens, UniProt Q05655)
Sequence (Q05655 whole entry): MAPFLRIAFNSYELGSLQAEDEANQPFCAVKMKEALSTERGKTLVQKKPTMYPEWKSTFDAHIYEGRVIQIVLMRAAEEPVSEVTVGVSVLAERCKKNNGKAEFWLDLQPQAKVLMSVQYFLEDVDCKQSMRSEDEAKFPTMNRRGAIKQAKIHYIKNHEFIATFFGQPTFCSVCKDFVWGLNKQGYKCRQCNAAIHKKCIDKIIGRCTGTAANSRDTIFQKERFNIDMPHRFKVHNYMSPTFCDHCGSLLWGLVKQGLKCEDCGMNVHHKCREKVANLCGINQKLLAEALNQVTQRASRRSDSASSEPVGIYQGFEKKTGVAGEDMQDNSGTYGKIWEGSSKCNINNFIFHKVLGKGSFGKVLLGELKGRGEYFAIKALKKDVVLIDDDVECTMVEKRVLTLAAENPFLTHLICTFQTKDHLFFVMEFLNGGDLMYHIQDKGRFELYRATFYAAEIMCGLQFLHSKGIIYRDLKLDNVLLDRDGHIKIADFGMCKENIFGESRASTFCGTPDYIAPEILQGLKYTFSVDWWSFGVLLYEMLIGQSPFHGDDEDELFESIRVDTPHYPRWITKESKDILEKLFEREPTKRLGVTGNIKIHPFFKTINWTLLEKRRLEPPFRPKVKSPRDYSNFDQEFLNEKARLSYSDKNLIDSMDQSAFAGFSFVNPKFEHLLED
Experiment: Inhibition of Protein kinase C delta
Please respond with the number in nM and leave the unit unwritten.

Some solved entries appear below for comparison.
>  <compound>
CN(C(=O)c1cc(O)c(C(=O)c2c(O)cccc2C(=O)O)c(O)c1)[C@H]1CCCNC[C@H]1NC(=O)c1ccc(O)cc1

>  <unit_text>
nM

>  <IC50>
42000

$$$$
>  <compound>
O=C(NC[C@@H]1CCC[C@H]1NC(=O)c1ccc(O)cc1)c1cc(O)c(C(=O)c2c(O)cccc2C(=O)O)c(O)c1

>  <unit_text>
nM

>  <IC50>
330

$$$$

// below: IC50 requested for another compound
// fetch Protein kinase C delta type (Homo sapiens, UniProt Q05655) IC50 for O=C(N[C@@H]1CNCCC[C@H]1OC(=O)c1cc(O)c(C(=O)c2c(O)cccc2C(=O)O)c(O)c1)c1ccc(O)cc1 [BALANOL]
16
